# Test system: A/Parma/24/09 H1N1 (Brisbane-like) oseltamivir-resistant virus
# Type: biochemical, Influenza A virus
# test.parameters: Table 2; turkey erythrocytes; dash = not active
compounds and their reported HI Titer A/Parma H1N1
observation.type: HI Titer A/Parma H1N1 (pM)

> print(dat)
                                   compound       observation.type  number
1  COc1ccc(NC(=O)COC(=O)c2ccc3c(c2)CCC(=O)N3)cc1 [Compound 19]  HI Titer A/Parma H1N1   0.012
2  CN(C(=O)COC(=O)c1ccc2ccccc2n1)c1ccccc1 [Compound 9]  HI Titer A/Parma H1N1   0.012
3  Cc1ccc(S(=O)(=O)Nc2ccc(-n3ccnc3)c(Cl)c2)cc1 [Compound 28]  HI Titer A/Parma H1N1   0.047
4  O=C(COC(=O)c1ccccn1)Nc1ccc(-c2ccccc2)cc1 [Compound 20]  HI Titer A/Parma H1N1   0.012
5  O=C1CCCN1c1ccc(CNS(=O)(=O)c2ccc(F)cc2)cc1 [Compound 23]  HI Titer A/Parma H1N1   0.012
6  CC(NS(=O)(=O)c1ccccc1)c1ccc(-c2ccccc2)cc1 (stereo not drawn) [Compound 17]  HI Titer A/Parma H1N1   0.012
7  COc1ccc(S(=O)(=O)NCc2ccc(-n3ccnc3)cc2)cc1F [Compound 25]  HI Titer A/Parma H1N1   0.012
8  Cc1nc(-c2cccc(NC(=O)COC(=O)c3ccc4ccccc4n3)c2)cs1 [Compound 26]  HI Titer A/Parma H1N1   0.047
9  N#Cc1ccc(NC(=O)COC(=O)c2ccccn2)cc1 [Compound 7]  HI Titer A/Parma H1N1   0.012

###

# Tested on: A/Parma/24/09 H1N1 (Brisbane-like) oseltamivir-resistant virus
# method: microbe, parasite or virus in culture
# Format: cell-based, Influenza A virus
# test.parameters: Influenza A virus, H1N1, MDCK, 48 h, read-out: EC50 A/Parma H1N1
pEC50: −log10 of the molar value.
compounds and their reported pEC50
observation.type: pEC50

> print(dat)
                                   compound  number
1  COc1ccc(S(=O)(=O)NCc2ccc(-n3ccnc3)cc2)cc1F    6.15
2        N#Cc1ccc(NC(=O)COC(=O)c2ccccn2)cc1    6.05
3         Cc1ccc(NC(=O)COC(=O)c2ccccn2)cc1F    6.15
4  O=C(CC1(O)C(=O)Nc2ccccc21)c1ccccn1 (stereo not shown)    6.05
